Entries and their measured ΔTm follow.
System: Staphylococcus aureus
assay_summary: Inhibition of methicillin-resistant Staphylococcus aureus ProRS expressed in Escherichia coli assessed as change in melting temperature in presence of AMPPNP at 0.5 mM by fluorescence-based thermal shift assay

{"columns": ["chemical_smiles", "tested_system", "ΔTm / °C"],
 "data": [
  ["Cc1cc2ncn(CC(=O)C[C@@H]3CCCCN3)c(=O)c2cc1C", "Staphylococcus aureus", 1.3],
  ["O=C(C[C@@H]1CCCCN1)Cn1cnc2ccc(F)cc2c1=O", "Staphylococcus aureus", 6.3],
  ["O=C(C[C@@H]1CCCCN1)Cn1cnc2cccc(Cl)c2c1=O", "Staphylococcus aureus", 3],
  ["O=C(C[C@@H]1CCCCN1)Cn1cnc2cc(F)c(F)cc2c1=O", "Staphylococcus aureus", 7.3],
  ["O=C(C[C@@H]1CCCCN1)Cn1cnc2ccccc2c1=O", "Staphylococcus aureus", 1.3],
  ["O=C(C[C@@H]1CCCCN1)Cn1cnc2ccc(C(F)(F)F)cc2c1=O", "Staphylococcus aureus", 1.2],
  ["O=C(C[C@@H]1CCCCN1)Cn1cnc2cc(C(F)(F)F)ccc2c1=O", "Staphylococcus aureus", 3.4],
  ["O=c1c2cc(Cl)c(Br)cc2ncn1CCC[C@@H]1CCCCN1", "Staphylococcus aureus", 2.5],
  ["O=C(C[C@@H]1CCCCN1)Cn1cnc2cc3ccccc3cc2c1=O", "Staphylococcus aureus", 0],
  ["O=C(C[C@@H]1CCCCN1)Cn1cnc2cccnc2c1=O", "Staphylococcus aureus", 0],
  ["O=C(C[C@@H]1CCCCN1)Cn1cnc2nccnc2c1=O", "Staphylococcus aureus", 0]
]}

Origin of values: ChEMBL document CHEMBL5150045
